src = ChEMBL document CHEMBL1129884

Can you tell me inhibition for the items I'm about to list?
- Target Of Assay: Serotonin 3 (5-HT3) receptor (Homo sapiens) (UniProt P46098+A5X5Y0+O95264+Q70Z44+Q8WXA8)
- Procedure Summary: Compound was measured for its binding affinity at 5-hydroxytryptamine 3 receptor at a concentration of 10 uM using [3H]BRL-43694 as radioligand
- Assay type: protein-complex assay
Just so you know, I need the unit written after the number.

Known inhibition results, listed for orientation:
molecule=O=C(c1cccc(CN2CCc3c([nH]c4ccccc34)C2)c1)N1CCc2ccccc21 result=22.6%
molecule=O=C(c1cccc(CN2CCc3c([nH]c4ccccc34)C2)c1)N1CCCCC1 result=13.6%
molecule="O=C(c1cccc(CN2CCN3c4ccccc4OCC3C2)c1)N1CCCCC1 (centres undefined)" result=5.1%

Field: next molecule
Sample O=C(c1cccc(CN2CCN3c4ccccc4OCC3C2)c1)N1CCc2ccccc21 (centres undefined) — what was its inhibition?
12.5%

###

- Target Of Assay: 5-hydroxytryptamine receptor 1B (Homo sapiens)
- Procedure Summary: Compound was measured for its binding affinity at 5-hydroxytryptamine 1B receptor at a concentration of 100 nM using [125I]CYP as radioligand
Consider the following compounds; for each one, report its inhibition.
Numbers only, in %.

compound="O=C(c1cccc(CN2CCN3c4ccccc4OCC3C2)c1)N1CCCCC1 (centres undefined)" measured_property=inhibition value_unit=% result=3.4
compound=O=C(c1cccc(CN2CCc3c([nH]c4ccccc34)C2)c1)N1CCCCC1 measured_property=inhibition value_unit=% result=1
compound=O=C(c1cccc(CN2CCc3c([nH]c4ccccc34)C2)c1)N1CCc2ccccc21 measured_property=inhibition value_unit=% result=8.8

Okay, now this compound:
# input compound: O=C(c1cccc(CN2CCN3c4ccccc4OCC3C2)c1)N1CCc2ccccc21 (centres undefined) ; wanted: its inhibition
8.1
